# procedure.text: Tissue concentrations of Formula I and its metabolites in Göttingen pigs after a single oral or intravenous dose (LC-MS/MS)
# Type: in vivo
# reported.conditions: both sexes, Göttingen, pig (minipig); heart; single oral dose of Formula I 125 mg/kg; 12 hpd; read-out: Tissue concentration, heart

compound: C[C@@]1(O)[C@H](O)[C@@H](CO)O[C@H]1n1ccc(=O)[nH]c1=S [Formula VI]
units: ng/g
concentration at 12 h: 533

compound: C[C@H](NP(=O)(O)OC[C@H]1O[C@@H](n2ccc(=O)[nH]c2=S)C(C)(O)C1O)C(=O)O (stereo in doubt) [Formula II]
units: ng/g
concentration at 12 h: 3.33

* * *

# procedure.text: Tissue concentrations of Formula I and its metabolites in Göttingen pigs after a single oral or intravenous dose (LC-MS/MS)
# Assay type: in vivo
# reported.conditions: kidney; single oral dose of Formula I 125 mg/kg; 3 hpd
Reported Tissue concentration, kidney is given for each of the following compounds.

compound: C[C@H](NP(=O)(O)OC[C@H]1O[C@@H](n2ccc(=O)[nH]c2=S)C(C)(O)C1O)C(=O)O (stereo in doubt) [Formula II]
Tissue concentration, kidney, ng/g: 10300

compound: CC1(O)[C@@H](O)[C@@H](COP(=O)(O)OP(=O)(O)OP(=O)(O)O)O[C@H]1n1ccc(=O)[nH]c1=S (stereo partly shown) [Formula V]
Tissue concentration, kidney, ng/g: 613

* * *

# procedure.text: Tissue concentrations of Formula I and its metabolites in Göttingen pigs after a single oral or intravenous dose (LC-MS/MS)
# Format: in vivo
# reported.conditions: both sexes, Göttingen, pig (minipig), in vivo, 125 mg/kg, heart; single oral dose of Formula I 125 mg/kg; 3 hpd; read-out: Tissue concentration, heart
parameter: concentration at 3 h (ng/g)

compound: CC(C)OC(=O)[C@H](C)N[P@](=O)(OC[C@H]1O[C@@H](n2ccc(=O)[nH]c2=S)C(C)(O)C1O)Oc1ccccc1 (stereo partly shown) [Formula I]
assay.result: 117

* * *

# procedure.text: Tissue concentrations of Formula I and its metabolites in Göttingen pigs after a single oral or intravenous dose (LC-MS/MS)
# Format: in vivo
# reported.conditions: both sexes, Göttingen, pig (minipig); liver; single oral dose of Formula I 125 mg/kg; 12 hpd; read-out: Tissue concentration, liver
parameter: concentration at 12 h (ng/g)

compound: C[C@@]1(O)[C@H](O)[C@@H](CO)O[C@H]1n1ccc(=O)[nH]c1=S
parameter: concentration at 12 h
assay.result: 2600

compound: C[C@H](NP(=O)(O)OC[C@H]1O[C@@H](n2ccc(=O)[nH]c2=S)C(C)(O)C1O)C(=O)O (stereo in doubt)
parameter: concentration at 12 h
assay.result: 202

compound: CC1(O)[C@@H](O)[C@@H](COP(=O)(O)OP(=O)(O)OP(=O)(O)O)O[C@H]1n1ccc(=O)[nH]c1=S (stereo partly shown)
parameter: concentration at 12 h
assay.result: 452

compound: CC1(O)[C@@H](O)[C@@H](COP(=O)(O)O)O[C@H]1n1ccc(=O)[nH]c1=S (stereo partly shown)
parameter: concentration at 12 h
assay.result: 582

* * *

# procedure.text: Tissue concentrations of Formula I and its metabolites in Göttingen pigs after a single oral or intravenous dose (LC-MS/MS)
# Type: in vivo
# reported.conditions: both sexes, Göttingen, pig (minipig); brain; single oral dose of Formula I 125 mg/kg; 24 hpd; read-out: Tissue concentration, brain

compound: C[C@@]1(O)[C@H](O)[C@@H](CO)O[C@H]1n1ccc(=O)[nH]c1=S [Formula VI]
concentration at 24 h (ng/g): 37.9
